The measurements presented in this section are drawn from patent US20260132197A1.

tested target: T1, wild type human CD47 (Acro Biosystems, cat. no. CD7-H5227) (human, UniProt Q08722 19-139)
T1 construct: Bought protein used as SPR analyte; also called Human CD47 wt; wild-type CD47
T1 sequence (Q08722 19-139 limits assumed): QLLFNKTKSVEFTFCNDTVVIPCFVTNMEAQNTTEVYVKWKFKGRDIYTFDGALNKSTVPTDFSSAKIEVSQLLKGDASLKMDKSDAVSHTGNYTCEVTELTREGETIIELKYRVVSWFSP
measurement notes: SPR, IgG captured, CD47 in flow; exp 3;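 further: other target is a CD47 mutein carrying C33G, used to obtain true monovalent affinity, with kon and koff fitted from SPR binding curves and KD derived from both rates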
Reported kon by item:
Give the value, in units of M⁻¹ s⁻¹, as a plain number.

Solved entries:
binder="108VH10.Mi / 108VL10.Me (antibody, V domains shown, 4D5-framework series; constant regions not restated for this series; also called VH10.Mi VL10.Me) VH: EVQLVESGGGLVQPGGSLRLSCAASGFTFSHHWIHWVRQAPGKGLEWVAMIDASDSETRLSDKFKDRFTISADTSKNTAYLQMNSLRAEDTAVYYCSRLGRYYFDYWGQGTLVTVSS VL: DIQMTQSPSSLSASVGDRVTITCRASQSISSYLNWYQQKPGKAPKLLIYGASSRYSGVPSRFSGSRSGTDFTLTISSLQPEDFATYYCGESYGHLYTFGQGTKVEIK" readout_name=kon test_value=640000
binder="108VH10.Mk / 108VL10.Me (antibody, V domains shown, 4D5-framework series; also called VH10.Mk VL10.Me) VH: EVQLVESGGGLVQPGGSLRLSCAASGFTFSHHWIHWVRQAPGKGLEWVAMIDASDSETRLSQKVKDRFTISADTSKNTAYLQMNSLRAEDTAVYYCSRLGRYYFDYWGQGTLVTVSS VL: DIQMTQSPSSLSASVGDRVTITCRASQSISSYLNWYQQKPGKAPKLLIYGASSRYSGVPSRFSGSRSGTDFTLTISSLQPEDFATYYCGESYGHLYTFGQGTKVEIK" readout_name=kon test_value=950000

Alright, here's another binder for you.
For this binder ( 108VH10.Ml / 108VL10.Me (antibody, V domains shown, 4D5-framework series; constant regions not restated for this series; also called VH10.Ml VL10.Me) VH: EVQLVESGGGLVQPGGSLRLSCAASGFTFSHHWIHWVRQAPGKGLEWVAMIDASDSETRLSQKFKGRFTISADTSKNTAYLQMNSLRAEDTAVYYCSRLGRYYFDYWGQGTLVTVSS VL: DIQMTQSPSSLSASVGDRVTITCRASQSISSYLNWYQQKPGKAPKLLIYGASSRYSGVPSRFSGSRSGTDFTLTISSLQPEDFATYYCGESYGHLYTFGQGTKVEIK ), measured kon is 610000
